Values were extracted from patent US12590062B2.

Molecular target: PD-1/PD-L1 (Homo sapiens, UniProt Q9NZQ7)
Sequence (Q9NZQ7 19-238 limits assumed): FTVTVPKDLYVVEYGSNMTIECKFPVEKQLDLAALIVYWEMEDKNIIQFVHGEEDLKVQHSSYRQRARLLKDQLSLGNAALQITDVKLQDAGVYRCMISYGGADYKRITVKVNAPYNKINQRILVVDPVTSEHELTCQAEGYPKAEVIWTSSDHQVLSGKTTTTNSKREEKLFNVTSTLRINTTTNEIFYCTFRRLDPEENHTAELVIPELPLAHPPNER
Experiment: PD-1/PD-L1 biochemical protein-protein interaction assay (ALPHA)
Conditions: 0.3 nM His tagged PD-L1, 2.5 nM biotinylated Fc-PD-1, 60 minutes at 25° C., read-out: IC50 PD-L1-PD-1 Alpha IC50-mono PD-L1-fcP-D1
Listed compounds paired with reported pIC50
For clarity, pIC50 is expressed as the negative log10 of concentration in mol/L.

Worked cases, answers included:
COc1nc(-c2cccc(-c3cccc4c3CC[C@@H]4Oc3nc(OCc4cc(C#N)cc(C#N)c4)c(CNC[C@@H](O)CC(=O)O)cc3Cl)c2Cl)ccc1CNC[C@@H]1CCC(=O)N1; 10.19
Cc1c(COc2cc(OCc3cncc(C#N)c3)c(CNC[C@@H](O)CC(=O)O)cc2Cl)cccc1-c1cccc(-c2ccc3c(c2)CC(NCCO)C3)c1C (some centres unmarked); 9.80
CS(=O)(=O)c1cncc(COc2nc(OCc3cccc(-c4cccc(-c5ccc(OCCNCCO)cc5)c4Cl)c3Cl)c(Cl)cc2CN2C[C@@H](O)C[C@H]2C(=O)O)c1; 9.78
C[C@@](CO)(NCc1cc(Cl)c(O[C@H]2CCc3c(-c4cccc(-c5ccc(OCCNCCO)cc5)c4Cl)cccc32)nc1OCc1cncc(S(C)(=O)=O)c1)C(=O)O; 10.19
CNCc1cc(Cl)c(O[C@H]2CCc3c(-c4cccc(-c5ccc(OCCN6CC[C@@H](O)C6)cc5)c4Cl)cccc32)nc1OCc1cncc(S(C)(=O)=O)c1; 8.58

Prompt: # query: pIC50 of entry `Cc1c(COc2cc(OCc3cncc(C#N)c3)c(CN[C@@](C)(CO)C(=O)O)cc2Cl)cccc1-c1cccc(-c2ccc3c(c2)ncc(=O)n3CCN(C)C)c1C`
Response: 10.19

Prompt: Give its pIC50 value. Item: `Cc1c(COc2nc(OCc3cc(C#N)cc(C#N)c3)c(CNC[C@@H](O)CC(=O)O)cc2Br)cccc1-c1cccc(COc2nc(OCc3cc(C#N)cc(C#N)c3)c(CNC[C@@H](O)CC(=O)O)cc2Br)c1C`
Response: 8.85

Prompt: Name the reported pIC50 value associated with the compound `Cc1c(-c2ccc(OCCNC[C@@H](O)CC(=O)O)cc2)cccc1-c1cccc2c1CC[C@@H]2Oc1ccc(CNC[C@@H](O)CC(=O)O)c(OCc2cncc(C#N)c2)n1`
Response: 10.20

Prompt: Look up pIC50: `Cc1c(COc2cc(OCc3cncc(C#N)c3)c(CNC[C@@H](O)CC(=O)O)cc2Cl)cccc1-c1cccc(-c2ccc(CNC[C@@H](O)CC(=O)O)c(-c3ccccc3)c2)c1C`
Response: 9.13

Prompt: Return reported pIC50; argument: `COc1nc(-c2cccc(-c3cccc4c3CC[C@@H]4Oc3nc(OCc4cncc(C#N)c4)c(CN[C@@](C)(CO)C(=O)O)cc3Br)c2C)ccc1C1=NCCN1`
Response: 10.19

Prompt: Given the compound `Cc1c(COc2cc(OCc3cncc(C#N)c3)c(CN[C@](C)(CO)C(=O)O)cc2Cl)cccc1-c1cccc(-c2ccc(OCCNCCO)cc2)c1C` , what is its reported pIC50?
Response: 10.09
